test: Luminescence Cell-Based Dose Response HTS to Identify Inhibitors of 5'UTR Stem-Loop Driven Prion Protein mRNA Translation in H4 Neuroglioblastoma Cells. [Related pubchem assays: 1827 (Project Summary), 1813 (Primary HTS)]; format: functional
Activity calls are given as the source filed them.
MEASURED_METRIC: EC50

> print(dat)
                                   compound                  result
1  Nc1nc(Nc2ccccc2)nc(NCc2ccccc2)c1[N+](=O)[O-]   > 120 µM (not active)
2       CN(C)c1ccc(-c2noc(-c3ccccc3O)n2)cc1  10.5 µM (inconclusive)
3  Cc1cc(C)n(CC(C)NC(=O)c2cc(COc3c(F)cccc3F)on2)n1 (stereo unspecified)   > 120 µM (not active)
4  COc1ccc(Nc2nc(N)c([N+](=O)[O-])c(NC3CCCCC3)n2)cc1        10.7 µM (active)
5  COc1ccc(/N=C/C2=C(O)c3ccccc3C2=O)c(OC)c1        11.7 µM (active)
6     COc1cccc2sc(NNC(=O)c3nc4ccccc4s3)nc12        16.5 µM (active)

====

A collection of molecules and their measured EC50
assay: Luminescence Cell-Based Dose Confirmation HTS to Identify Inhibitors of Platelet Dense Granule Release. [Related pubchem assays: 1663 (Primary HTS), 1678 (Summary of Project)]; assay type: functional
The source made the active and inactive calls.
MEASURED_METRIC: EC50

> print(dat)
                                   molecule                 result
1  CCOc1ccc(CN2CCN(CCCn3cccn3)CC2CCO)cc1 (stereo unspecified)       83.2 µM (active)
2  O=C(c1ccc(S(=O)(=O)Nc2ccccc2)cc1)N1CCCC1  > 112 µM (not active)
3  Cc1nc2oc3c(NCC4CCCO4)ncnc3c2c2c1COC(C)(C)C2 (stereo unspecified)  > 112 µM (not active)
4  COc1ccc(Br)cc1CNC(=O)c1ccc2c(c1)N(C)CCS2  > 112 µM (not active)
5  O=C(Cn1c(O)c(N=NC(=O)c2ccncc2)c2ccccc21)Nc1ccccc1  > 112 µM (not active)
6  CC(Cc1ccccc1)Nc1ncnc2c1ncn2C1OC(CO)C(O)C1O (stereo unspecified)    < 0.701 µM (active)

====

test: viability of PTEN-deleted HCT116 cells – cell-based, HCT116 PTEN knockout, dose response (AID 1047); format: functional;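 further: HCT116 colon tumor cells with PTEN knocked out; cells exposed to compound for 60 hours before readout; potency for loss of cell viability measured by luminescence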
Active and inactive are the calls of the source.
A collection of compounds and their measured EC50
MEASURED_METRIC: EC50

> print(dat)
                                   compound  measured.metric            result
1  CCCCNC(=O)C1CC(c2c(Cl)cccc2Cl)=NO1 (centres undefined)             EC50  21.8 µM (active)
2  Cc1ccc(OCC(=O)Nc2ccc(O)c(-c3nc4ccccc4o3)c2)cc1             EC50  26.8 µM (active)
3  CCOC(=O)C1=C(C)N=c2s/c(=C\c3ccncc3)c(=O)n2C1c1ccc2c(c1)OCO2 (centres undefined)             EC50  10.5 µM (active)
4  Nc1c(C(=O)Nc2ccc(S(=O)(=O)N3CCCC3)cc2)sc2nc3cc4c(cc3cc12)CCC4             EC50   4.9 µM (active)
